Source of measurements: patent US9725436B2

# system: recombinant CYP-11 (Homo sapiens (Human), UniProt P15538)
# Sequence (P15538 25-503): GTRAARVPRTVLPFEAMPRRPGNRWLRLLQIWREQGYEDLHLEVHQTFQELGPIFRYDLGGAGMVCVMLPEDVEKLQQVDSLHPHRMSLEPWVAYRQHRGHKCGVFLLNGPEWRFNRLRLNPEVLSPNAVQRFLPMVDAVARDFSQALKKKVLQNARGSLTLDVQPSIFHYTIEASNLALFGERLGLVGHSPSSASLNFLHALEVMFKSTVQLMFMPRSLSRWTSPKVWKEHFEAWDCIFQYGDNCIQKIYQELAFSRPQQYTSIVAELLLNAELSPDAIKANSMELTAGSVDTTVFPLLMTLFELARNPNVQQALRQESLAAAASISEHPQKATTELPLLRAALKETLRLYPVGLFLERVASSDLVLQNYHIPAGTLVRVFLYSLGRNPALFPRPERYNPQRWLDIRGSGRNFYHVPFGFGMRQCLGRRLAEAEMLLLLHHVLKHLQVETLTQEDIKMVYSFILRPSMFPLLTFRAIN
# assay_notes: Cyp11 assay protocol (cortisol formation from 11-deoxycortisol, LC/MS)
# condition: AD293 cells over-expressing recombinant CYP-11
pIC50: −log10 of the molar value.
test_readout: pIC50

O=S(=O)(c1cccnc1)N1CCN(c2ccc(/C=C/c3cc(Cl)cc(Cn4ccnc4)c3)cc2)CC1 [Example 21]; 8.40
CC(=O)N1CCN(c2ccc(/C=C/c3cc(Cl)cc(COc4cccnc4)c3)cc2)CC1 [Example 26]; 6.85
CCOC(=O)CNC(=O)N1CCN(c2ccc(/C=C/c3cc(Cl)cc(Cn4ccnc4)c3)cc2)CC1 [Example 20]; 7.57
O=S(=O)(N1CCN(c2ccc(CCc3cc(F)cc(-c4ccncc4)c3)cc2)CC1)C(F)(F)F [Example 45]; 6.74
N#Cc1cccc(CN2CCN(c3ccc(/C=C/c4cc(Cl)cc(Cn5ccnc5)c4)cc3)CC2)c1 [Example 23]; 8.15
O=S(=O)(N1CCN(c2ccc(/C=C/c3cc(F)cc(-c4ccncc4)c3)cc2)CC1)C(F)(F)F [Example 39]; 5.82
O=S(=O)(c1cccnc1)N1CCN(c2ccc(/C=C/c3cc(F)cc(-c4ccncc4)c3)cc2)CC1 [Example 33]; 6.66
O=S(=O)(C1CC1)N1CCN(c2ccc(/C=C/c3cc(F)cc(-c4ccncc4)c3)cc2)CC1 [Example 35]; 6.85

(1) CCS(=O)(=O)N1CCN(c2ccc(/C=C/c3cc(F)cc(-c4ccncc4)c3)cc2)CC1 [Example 36]
(2) Fc1cc(/C=C/c2ccc(-c3ccncc3)cc2)cc(-c2ccncc2)c1 [Example 25]
(3) Clc1cc(/C=C/c2ccc(N3CCN(CC4CC4)CC3)cc2)cc(Cn2ccnc2)c1 [Example 19]
(4) Fc1cc(/C=C/c2ccc(N3CCN(CC4CC4)CC3)cc2)cc(-c2ccncc2)c1 [Example 38]
Prompt line: Give the ascending ranking of the items by reported pIC50. The labels, placed in the requested order, form the answer.
Response line: 2, 1, 4, 3

(1) N#Cc1cccc(C(=O)N2CCN(c3ccc(/C=C/c4cc(Cl)cc(Cn5ccnc5)c4)cc3)CC2)c1 [Example 18]
(2) CCOC(=O)CNC(=O)N1CCN(c2ccc(/C=C/c3cc(F)cc(-c4ccncc4)c3)cc2)CC1 [Example 34]
(3) O=C(C1CC1)N1CCN(c2ccc(/C=C/c3cc(Cl)cc(Cn4ccnc4)c3)cc2)CC1 [Example 22]
(4) CCS(=O)(=O)N1CCN(c2ccc(CCc3cc(F)cc(-c4ccncc4)c3)cc2)CC1 [Example 44]
Prompt line: Descending sort on pIC50 required. Answer format: the labels, ordered as requested.
Response line: 1, 3, 4, 2
(1: 8.40, 3: 7.72, 4: 6.48, 2: 5.89)

---

# assay_notes: Pharmacokinetic study in the guinea pig, 10 mg/kg oral dosing
# Assay type: in vivo
# condition: in vivo, read-out: AUC0_last
test_readout: AUC (ng·h/mL)

These recorded examples may help you get a feel for the data.
O=S(=O)(N1CCN(c2ccc(/C=C/c3cc(F)cc(-c4ccncc4)c3)cc2)CC1)C(F)(F)F [drawing 726]; 1650
O=S(=O)(C1CC1)N1CCN(c2ccc(/C=C/c3cc(F)cc(-c4ccncc4)c3)cc2)CC1 [drawing 724]; 1600

(1) CC(=O)N1CCN(c2ccc(/C=C/c3cc(F)cc(-c4ccncc4)c3)cc2)CC1
(2) CCS(=O)(=O)N1CCN(c2ccc(/C=C/c3cc(F)cc(-c4ccncc4)c3)cc2)CC1 [drawing 725]
Prompt line: Just curious, which one has the larger AUC reading, 1 or 2 ? Please respond with the label that marks your chosen entry.
Response line: 1
(1: 8230 ng·h/mL, 2: 3300 ng·h/mL)

---

# system: recombinant CYP-21 (Homo sapiens (Human), UniProt P08686)
# Sequence (P08686 whole entry, species assumed): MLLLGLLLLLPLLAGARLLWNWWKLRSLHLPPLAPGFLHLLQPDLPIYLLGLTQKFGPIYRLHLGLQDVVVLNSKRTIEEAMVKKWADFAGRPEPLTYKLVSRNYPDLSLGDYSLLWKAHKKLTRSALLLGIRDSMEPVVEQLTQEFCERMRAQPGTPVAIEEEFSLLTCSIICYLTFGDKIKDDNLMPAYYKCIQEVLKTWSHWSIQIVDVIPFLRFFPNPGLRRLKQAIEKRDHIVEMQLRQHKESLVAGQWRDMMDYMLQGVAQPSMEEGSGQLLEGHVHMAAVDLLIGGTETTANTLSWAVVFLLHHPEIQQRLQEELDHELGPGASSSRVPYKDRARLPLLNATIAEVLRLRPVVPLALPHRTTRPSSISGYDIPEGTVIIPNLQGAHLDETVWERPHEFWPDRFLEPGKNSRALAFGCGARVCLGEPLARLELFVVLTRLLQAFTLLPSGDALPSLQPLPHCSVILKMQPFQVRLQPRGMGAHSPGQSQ
# assay_notes: Cyp21 assay protocol (11-deoxycortisol formation from 17α-OH Progesterone, LC/MS)
# condition: AD293 cells over-expressing recombinant CYP-21
pIC50: −log10 of the molar value.
test_readout: pIC50

# count of solved cases: 3
O=S(=O)(c1cccnc1)N1CCN(c2ccc(/C=C/c3cc(F)cc(-c4ccncc4)c3)cc2)CC1; 5.48
CCS(=O)(=O)N1CCN(c2ccc(CCc3cc(F)cc(-c4ccncc4)c3)cc2)CC1; 5.80
Fc1cc(/C=C/c2ccc(-c3ccncc3)cc2)cc(-c2ccncc2)c1; 6.07

(I) O=S(=O)(N1CCN(c2ccc(CCc3cc(F)cc(-c4ccncc4)c3)cc2)CC1)C(F)(F)F
(II) CCOC(=O)CNC(=O)NC1CCN(c2ccc(/C=C/c3cc(Cl)cc(Cn4ccnc4)c3)cc2)CC1
Prompt line: Kindly identify which of I and II has the larger recorded pIC50 value. Output the label that corresponds to your choice.
Response line: II
(II: 7.14, I: 5.55)

(P) Fc1cc(/C=C/c2ccc(Br)cc2)cc(-c2ccncc2)c1
(Q) CCS(=O)(=O)N1CCN(c2ccc(/C=C/c3cc(F)cc(-c4ccncc4)c3)cc2)CC1
(R) CCOC(=O)CNC(=O)N1CCN(c2ccc(/C=C/c3cc(F)cc(-c4ccncc4)c3)cc2)CC1
(S) O=S(=O)(N1CCN(c2ccc(/C=C/c3cc(F)cc(-c4ccncc4)c3)cc2)CC1)C(F)(F)F
Prompt line: List from greatest to least pIC50. Respond with the label ranking, as requested.
Response line: S, Q, R, P

(1) CC(=O)N1CCN(c2ccc(/C=C/c3cc(Cl)cc(C(O)(c4cccnc4)C(C)C)c3)cc2)CC1 (centres unmarked)
(2) Fc1cc(/C=C/c2ccc(N3CCN(CC4CC4)CC3)cc2)cc(-c2ccncc2)c1
(3) CCOC(=O)CNC(=O)N1CCN(c2ccc(/C=C/c3cc(Cl)cc(Cn4ccnc4)c3)cc2)CC1
(4) O=C(C1CC1)N1CCN(c2ccc(/C=C/c3cc(Cl)cc(Cn4ccnc4)c3)cc2)CC1
Prompt line: Ordering criterion: pIC50; begin with the maximum. To answer, arrange all of the labels according to the requested order.
Response line: 3, 2, 4, 1
(3: 6.44, 2: 6.11, 4: 5.85, 1: 5.48)

(A) O=S(=O)(C1CC1)N1CCN(c2ccc(CCc3cc(F)cc(-c4ccncc4)c3)cc2)CC1
(B) Clc1cc(/C=C/c2ccc(N3CCN(CC4CC4)CC3)cc2)cc(Cn2ccnc2)c1
Prompt line: Which of these two has the smaller recorded pIC50: A or B ? // respond with label for picked entry
Response line: A

---

# system: recombinant CYP-17 (Homo sapiens (Human))
# Sequence (P05093 whole entry, species assumed): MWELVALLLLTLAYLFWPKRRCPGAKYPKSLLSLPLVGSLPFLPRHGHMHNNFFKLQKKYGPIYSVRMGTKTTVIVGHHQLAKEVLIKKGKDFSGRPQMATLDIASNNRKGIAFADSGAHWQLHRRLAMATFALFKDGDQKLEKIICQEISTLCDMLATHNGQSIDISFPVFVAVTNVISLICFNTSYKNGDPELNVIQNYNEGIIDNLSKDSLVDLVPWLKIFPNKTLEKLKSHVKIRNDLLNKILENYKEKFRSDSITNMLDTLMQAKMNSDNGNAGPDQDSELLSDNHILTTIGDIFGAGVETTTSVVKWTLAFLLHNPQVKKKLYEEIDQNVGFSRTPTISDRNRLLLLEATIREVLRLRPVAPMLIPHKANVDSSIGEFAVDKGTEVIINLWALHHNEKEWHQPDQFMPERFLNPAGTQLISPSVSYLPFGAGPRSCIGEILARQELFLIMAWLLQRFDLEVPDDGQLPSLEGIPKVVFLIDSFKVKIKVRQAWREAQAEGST
# assay_notes: Cyp17 assay protocol (3H-acetic acid release from [21-3H] 17α-hydroxyl-Pregnenolone)
# Assay type: cell-based
# condition: AD293 cells over-expressing recombinant CYP-17
# Procedure: Cyp17 assay protocol: AD293 cells that stably over-express recombinant CYP-17 were seeded in 96 well plates coated with poly D-lysine (15,000 cell per well) and incubated at 37° C. for 24 hours in Dulbecco's Modified Eagle Medium (DMEM) with Fetal Bovine Serum (FBS) that is stripped of hormones by charcoal treatment. […] The aqueous layer is then separated and analyzed for the presence of ^3H-acetic acid using a Perkin Elmer Topcount NXT to determine IC50s of the compounds of the disclosure.
test_readout: IC50 (nM)

// solved cases for IC50 follow
Fc1cc(CCc2ccc(-c3ccncc3)cc2)cc(-c2ccncc2)c1 [Example 37]; 190
CCOC(=O)CNC(=O)N1CCN(c2ccc(CCc3cc(F)cc(-c4ccncc4)c3)cc2)CC1 [Example 43]; 7
CC(C)=C(c1cccnc1)c1cc(Cl)cc(/C=C/c2ccc(-c3ccncc3)cc2)c1 [Example 46]; 300

(A) Clc1cc(/C=C/c2ccc(N3CCN(CC4CC4)CC3)cc2)cc(Cn2ccnc2)c1 [Example 19]
(B) CC(=O)N1CCN(c2ccc(/C=C/c3cc(Cl)cc(-c4cccnc4)c3)cc2)CC1 [Example 32]
(C) O=C(C1CC1)N1CCN(c2ccc(/C=C/c3cc(Cl)cc(Cn4ccnc4)c3)cc2)CC1 [Example 22]
Prompt line: // smallest IC50 at index 0, largest at the end List labels; respect the requested ordering.
Response line: A, C, B

---

# assay_notes: Pharmacokinetic study in the guinea pig, 10 mg/kg oral dosing
# Assay type: in vivo
# condition: in vivo, read-out: MRT0_last
test_readout: MRT (h)

O=S(=O)(C1CC1)N1CCN(c2ccc(/C=C/c3cc(F)cc(-c4ccncc4)c3)cc2)CC1 [drawing 724]; 7
CC(=O)N1CCN(c2ccc(/C=C/c3cc(F)cc(-c4ccncc4)c3)cc2)CC1; 5.56
CCS(=O)(=O)N1CCN(c2ccc(/C=C/c3cc(F)cc(-c4ccncc4)c3)cc2)CC1 [drawing 725]; 5.54
O=S(=O)(N1CCN(c2ccc(/C=C/c3cc(F)cc(-c4ccncc4)c3)cc2)CC1)C(F)(F)F [drawing 726]; 5.01

---

# assay_notes: Pharmacokinetic study in the guinea pig, 10 mg/kg oral dosing
# Format: in vivo
# condition: in vivo
test_readout: Cmax (ng/mL)

O=S(=O)(C1CC1)N1CCN(c2ccc(/C=C/c3cc(F)cc(-c4ccncc4)c3)cc2)CC1 [drawing 724]; 172

(P) O=S(=O)(N1CCN(c2ccc(/C=C/c3cc(F)cc(-c4ccncc4)c3)cc2)CC1)C(F)(F)F [drawing 726]
(Q) CC(=O)N1CCN(c2ccc(/C=C/c3cc(F)cc(-c4ccncc4)c3)cc2)CC1
(R) CCS(=O)(=O)N1CCN(c2ccc(/C=C/c3cc(F)cc(-c4ccncc4)c3)cc2)CC1 [drawing 725]
Prompt line: Rank the items in ascending order with respect to Cmax. Present the labels in the sequence the task asks for.
Response line: P, R, Q
